System: CCRF-CEM
protocol: NCI tumour cell line growth inhibition, 48 h
Activity calls are given as the source filed them. Cut-off read from the data, not from the text of the source: active = GI50 up to about 1.1 µM and inactive = higher.
Use one of these outcomes when replying: Yes for active, No for inactive

These solved cases illustrate the format of a correct answer.
- CC(=O)Oc1ccccc1/C=C/C(=O)/C=C/c1ccccc1OC(C)=O: Yes
- N#CC1=C(N)n2c(s/c(=C\c3ccc(Cl)cc3)c2=O)=C(c2nc3ccccc3[nH]2)C1c1ccc(Cl)cc1 (stereo not drawn): No
- COc1ccc(-n2c(=O)n(C)c(=O)n2-c2c(C)c(C)c(C)c(C)c2C)cc1: Yes

Query :: Any idea what this test logged for CC(=O)c1ccc2c(c1)CC1(C2)Cc2cc3c(c(C(=O)O)c2C1)CCC3 (stereo not drawn) ?
Result :: No

Query :: Outcome logged for CC(=O)OC12c3ccccc3-c3ccccc3C1C1C(=O)OC(=O)C12 (stereo not drawn) in this assay:
Result :: No

Query :: What classification did COc1ccc2c(c1)[n+]([O-])c(/C(C)=N/NC(N)=S)c(C)[n+]2[O-] end up with in this test?
Result :: No

Query :: Entry Cc1nc2ccccc2nc1-c1ccc(/N=[N+](\[O-])c2ccc(-c3nc4ccccc4nc3C)cc2)cc1 : call = ?
Result :: No

Query :: Lab log entry: CC1(C)CCCOc2cccc(c2)OCCCC(C)(C)C1=O — outcome as called in the assay?
Result :: No

Query :: Tell me the recorded outcome of this test for COc1ccc(C2C3CCCC(C3=O)C(c3ccc(OC)cc3)N2N=O)cc1 (stereo not drawn) .
Result :: No
